# TESTED_SYSTEM: Recombinant human liver GK1 (GST-GK) (Homo sapiens, UniProt P35557)
# Construct: made in house; host or cells: E. coli
# Sequence (P35557 1-466 isoform P35557-2): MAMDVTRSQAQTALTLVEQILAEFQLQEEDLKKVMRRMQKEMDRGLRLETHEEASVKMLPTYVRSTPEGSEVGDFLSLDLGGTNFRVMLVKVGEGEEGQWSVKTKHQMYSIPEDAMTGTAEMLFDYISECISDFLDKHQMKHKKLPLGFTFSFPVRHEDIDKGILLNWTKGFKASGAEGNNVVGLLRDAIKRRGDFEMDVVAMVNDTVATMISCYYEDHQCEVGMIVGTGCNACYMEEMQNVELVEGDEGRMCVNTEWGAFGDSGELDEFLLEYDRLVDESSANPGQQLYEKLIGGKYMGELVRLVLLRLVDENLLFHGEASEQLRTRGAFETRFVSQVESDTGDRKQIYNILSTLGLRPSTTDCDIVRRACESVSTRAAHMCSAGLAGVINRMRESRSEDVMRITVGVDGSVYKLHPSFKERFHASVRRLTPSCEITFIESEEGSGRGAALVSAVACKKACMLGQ
# PROTOCOL: In vitro glucokinase activity, G6PDH-coupled spectrophotometric assay
# Format: biochemical
# EXPERIMENTAL_PARAMETERS: 5 mM D-glucose, 30° C., pH 7.1
Kindly supply the reported SC1.5 (concentration of activator that produced a 50% increase in the activity of GK) values for the records listed here.
Param answer (str): number followed by unit.

Log: Recombinant human liver GK1 (GST-GK) (Homo sapiens, UniProt P35557), molecule N#Cc1ccc2c(c1)N(C(CC1CCCC1)C(=O)Nc1ccccn1)C(=O)C2 (stereo not drawn) , SC1.5 (concentration of activator that produced a 50% increase in the activity of GK) = 1.91 µM

Log: Recombinant human liver GK1 (GST-GK) (Homo sapiens, UniProt P35557), molecule O=C(Nc1cnccn1)C(CC1CCCC1)N1C(=O)Cc2ccc(F)cc21 (stereo not drawn) , SC1.5 (concentration of activator that produced a 50% increase in the activity of GK) = 0.81 µM

Log: Recombinant human liver GK1 (GST-GK) (Homo sapiens, UniProt P35557), molecule CC(C)CC(C(=O)Nc1ccccn1)N1C(=O)C(=O)c2cc(OC(F)(F)F)ccc21 (stereo not drawn) , SC1.5 (concentration of activator that produced a 50% increase in the activity of GK) = 2.57 µM

Log: Recombinant human liver GK1 (GST-GK) (Homo sapiens, UniProt P35557), molecule O=C(Nc1ccccn1)C(CC1CCCC1)N1C(=O)Cc2ccc(Br)cc21 (stereo not drawn) , SC1.5 (concentration of activator that produced a 50% increase in the activity of GK) = 0.12 µM

Log: Recombinant human liver GK1 (GST-GK) (Homo sapiens, UniProt P35557), molecule O=C(Nc1ccccn1)C(CC1CCCC1)N1C(=O)Cc2c(Cl)cccc21 (stereo not drawn) , SC1.5 (concentration of activator that produced a 50% increase in the activity of GK) = 1.23 µM

Log: Recombinant human liver GK1 (GST-GK) (Homo sapiens, UniProt P35557), molecule CC(C)CC(C(=O)Nc1nccs1)N1C(=O)Cc2ccccc21 (stereo not drawn) , SC1.5 (concentration of activator that produced a 50% increase in the activity of GK) = 16.22 µM

Log: Recombinant human liver GK1 (GST-GK) (Homo sapiens, UniProt P35557), molecule O=C(Nc1nccs1)C(CC1CCCC1)N1C(=O)Cc2ccccc21 (stereo not drawn) , SC1.5 (concentration of activator that produced a 50% increase in the activity of GK) = 3.3 µM

Log: Recombinant human liver GK1 (GST-GK) (Homo sapiens, UniProt P35557), molecule CC(C)CC(C(=O)Nc1ccn(C)n1)N1C(=O)C(=O)c2ccc(Cl)cc21 (stereo not drawn) , SC1.5 (concentration of activator that produced a 50% increase in the activity of GK) = 15.93 µM

Log: Recombinant human liver GK1 (GST-GK) (Homo sapiens, UniProt P35557), molecule CC(C)CC(C(=O)Nc1ccn(C)n1)N1C(=O)Cc2cc(Br)ccc21 (stereo not drawn) , SC1.5 (concentration of activator that produced a 50% increase in the activity of GK) = 17.96 µM
